# Tested on: HCT-116
# MEASUREMENT_PROTOCOL: NCI tumour cell line growth inhibition, 48 h
The source made the active and inactive calls. Rule as the data show it: active = GI50 up to about 1.1 µM and inactive = higher.
Your reply should match one of these outcome classes. active, inactive

Previously resolved entries follow.
MOLECULE: COc1cc2c(c(OC)c1OC)-c1ccc(SC)c(=O)cc1C(CC(=O)Oc1ccccc1F)C2 (stereo not given)
ANSWER_LABEL: active
--
MOLECULE: Cc1ccccc1NC(=O)c1nc(S)nc(N)c1-c1ccccc1C
ANSWER_LABEL: inactive
--
MOLECULE: CO[C@H]1C[C@H](O[C@H]2CC[C@@]3(C)[C@H](CC[C@@H]4[C@@H]3CC[C@]3(C)[C@@H](C5=CC(=O)OC5)CC[C@]43O)C2)O[C@H](C)[C@H]1O
ANSWER_LABEL: active

Assay outcome for COC(=O)/C=C/c1ccc2c(c1)CC1(Cc3ccccc3C1)C2 : what was it?
active

Just curious, what result did CCOC(=O)C(NC(C)=O)(Nc1ccc(S(N)(=O)=O)cc1)C(F)(F)F (stereo not given) get here?
inactive

Kindly provide the recorded test outcome for the following molecule: CCN(CC)CCCNc1ncc(C)c2c1c1ccc3c(O)cccc3c1n2C
active

Can you look up the reported call for C/C=C(/C)C(=O)OC1CC(C)[C@H]2CC(=O)C(C)=C2CC1C(C)(C)OC(C)=O (stereo not given in full) for me?
inactive

Given COC(=O)CCC1(CCC(=O)OC)CCCCCCC(CCC(=O)OC)(CCC(=O)OC)C(=O)C1=O , state the outcome it received in this test.
inactive

// outcome(item) with item = CC(C)(CO)N1C(=O)c2ccccc2C1(O)c1ccc(Cl)cc1 (stereo not given)
inactive

// outcome(item) with item = CN1C(=S)CSc2ccccc21
inactive

###

# System: LOX IMVI
# MEASUREMENT_PROTOCOL: NCI tumour cell line growth inhibition, 48 h
Activity calls are given as the source filed them. Cut-off read from the data, not from the text of the source: active = GI50 up to about 1.1 µM and inactive = higher.
Field 'call' accepts active, inactive

COMPOUND: CC(=O)C(C(C)=O)[C@H]1OC(C)(C)O[C@H]1[C@H]1COC(C)(C)O1
ANSWER_LABEL: inactive

For N#Cc1nc(COCCOCc2ccc(F)cc2)oc1N , what call appears in the results of this test?
inactive

For CCCNC(=O)NNC(=O)c1c[nH]c2nc(C)ccc2c1=O , what call appears in the results of this test?
inactive

Can you look up the reported call for NC(=O)c1cc([N+](=O)[O-])cc([N+](=O)[O-])c1 [NITROMIDE] for me?
inactive

// param item: COc1ccc(C(c2ccc(C(C)C)cc(=O)c2O)c2ccc3cccnc3c2O)cc1 (stereo not drawn) ; yields the recorded call
active

###

# System: SK-MEL-28
# MEASUREMENT_PROTOCOL: NCI tumour cell line growth inhibition, 48 h
Structures can show the parent of a compound that is named as a salt. Activity calls are given as the source filed them. Rule as the data show it: active = GI50 up to about 1.1 µM and inactive = higher.
MEASURED_ATTRIBUTE: GI50

Some solved entries appear below for comparison.
MOLECULE: N#CC[C@@H](O)COc1ccccc1
GI50: > 100 µM (inactive)
//
MOLECULE: COS(=O)CCOC(=O)c1ccccc1SSc1ccccc1C(=O)OCCS(=O)OC (stereo unspecified)
GI50: 30.7 µM (inactive)
//
MOLECULE: CCCCOC(=O)CC(CC(=O)OCCCC)(OC(C)=O)C(=O)OCCCC [ACETYLTRIBUTYL CITRATE]
GI50: > 157 µM (inactive)
//
MOLECULE: Nc1nc(Cl)cc(NCC2(CCO)CCC2)n1
GI50: > 100 µM (inactive)
//
MOLECULE: CC(=O)Nc1ccc(C(=O)NN2C(=O)C(Cl)C2c2cccc([N+](=O)[O-])c2)cc1 (stereo unspecified)
GI50: > 100 µM (inactive)

Let me check: O=C(CCCN1CCC(O)(c2ccc(Cl)cc2)CC1)c1ccc(F)cc1 , system SK-MEL-28, measured GI50 is 18 µM (inactive)

For O=C1C(=C2CCCC2)CCC1CN1CCCCC1 (stereo unspecified) on SK-MEL-28, measured GI50 was 17.5 µM (inactive)

The value of GI50 recorded for CC(NNC(=O)c1cc[n+]([BH2-]C#N)cc1)c1ccc(Cl)cc1Cl (stereo unspecified) when tested on SK-MEL-28 reads 44.5 µM (inactive)

Log: SK-MEL-28, molecule CCOC(=O)C(C/C=C/CO)N(C)C(=O)OC(C)(C)C (stereo unspecified) , GI50 = > 100 µM (inactive)

Result for CC1=CC2(C)C=C[C@@H]1C(=O)[C@@]1(C)CC[C@@](O)(C(C)C)[C@H]1CC2 , tested on SK-MEL-28, GI50: 20.9 µM (inactive)

Measured GI50 for this entry N#Cc1nnn(-c2ccc(Br)cc2)c1O on SK-MEL-28: > 100 µM (inactive)

Result for CC1(C)N=C(N)N=C(N)N1c1ccc(CCc2ccccc2)cc1 , tested on SK-MEL-28, GI50: 6.01 µM (inactive)

I looked up O=C(CCc1cccc(O)c1)NCCCNC(=O)CCc1cccc(O)c1 and its GI50 for SK-MEL-28 was > 100 µM (inactive)

The measured GI50 that COc1ccc(C(=O)C(C(=O)C(=O)NC2C3CC4CC(C3)CC2C4)c2ccc(OC)cc2)cc1 (stereo unspecified) showed for SK-MEL-28 is > 100 µM (inactive)
